Could you please report measured IC50 for the items listed next?
Target: UniProt:P21588
Assay: Inhibition of rat Ecto-5'-nucleotidase transfected in COS7 cells preincubated for 10 mins followed by AMP addition measured after 10 mins
Reply with the number and its unit after it.

Query :: Using the record for CC(C)OC1Oc2ccccc2C(=O)/C1=C\Nc1ccc(S(N)(=O)=O)cc1 (racemic) , report its IC50.
Result :: 540 nM

Query :: Same for COC1Oc2c(Cl)cc(Cl)cc2C(=O)/C1=C\Nc1ccccc1S(N)(=O)=O (racemic)
Result :: 1840 nM

Query :: Now the molecule COC1Oc2c(Cl)cc(Cl)cc2C(=O)/C1=C\Nc1ccc(S(N)(=O)=O)cc1 (racemic)
Result :: 10100 nM

* * *

Consider the following compounds; for each one, report its pKi.
Molecular target: 5'-nucleotidase (Rattus norvegicus, UniProt P21588)
Sequence (P21588 whole entry): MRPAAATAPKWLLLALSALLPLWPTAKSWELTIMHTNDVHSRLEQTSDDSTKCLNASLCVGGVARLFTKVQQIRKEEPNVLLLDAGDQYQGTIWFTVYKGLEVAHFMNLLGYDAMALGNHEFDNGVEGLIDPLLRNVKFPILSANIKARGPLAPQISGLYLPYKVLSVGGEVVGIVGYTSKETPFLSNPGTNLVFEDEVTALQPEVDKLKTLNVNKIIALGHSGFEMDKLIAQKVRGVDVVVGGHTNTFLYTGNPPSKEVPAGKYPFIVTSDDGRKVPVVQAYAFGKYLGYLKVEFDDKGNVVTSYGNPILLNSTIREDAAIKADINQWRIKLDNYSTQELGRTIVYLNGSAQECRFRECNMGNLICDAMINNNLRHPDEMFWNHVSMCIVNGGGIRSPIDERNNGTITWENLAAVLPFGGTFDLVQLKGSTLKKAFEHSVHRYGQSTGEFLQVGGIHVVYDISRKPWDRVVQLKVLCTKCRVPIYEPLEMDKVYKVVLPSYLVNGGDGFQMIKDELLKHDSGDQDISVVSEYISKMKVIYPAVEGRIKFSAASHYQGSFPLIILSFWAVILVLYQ
Experiment: Inhibition of rat Ecto-5'-nucleotidase transfected in COS7 cells preincubated for 10 mins followed by AMP addition measured after 10 mins
Entry type: numeric. Quantity: pKi, the -log10 of concentration in molar units.

Query :: # query: pKi of entry CCCCOC1Oc2ccccc2C(=O)/C1=C\Nc1cccc(S(N)(=O)=O)c1 (racemic)
Result :: 6.76

Query :: Subsequent entry: CCOC1Oc2ccccc2C(=O)/C1=C\Nc1ccc(S(=O)(=O)Nc2ccc(OC)nn2)cc1 (racemic)
Result :: 7.29

Query :: What do we get for COC1Oc2c(Cl)cc(Cl)cc2C(=O)/C1=C\Nc1ccccc1S(N)(=O)=O (racemic) ?
Result :: 7.06

Query :: Then COC1Oc2ccccc2C(=O)/C1=C\Nc1ccccc1S(N)(=O)=O (racemic) ?
Result :: 6.94

Query :: // query: O=c1c(C2Nc3ccccc3S(=O)(=O)N2)coc2ccccc12 (racemic)
Result :: 6.74

* * *

Biological target: UniProtKB P21589
Experiment: Inhibition of human Ecto-5'-nucleotidase transfected in COS7 cells preincubated for 10 mins followed by AMP addition measured after 10 mins
Would you mind telling me the reported log10 Ki of each entry?
Use the decimal logarithm of Ki (µM).

Query :: What value of log10 Ki has been reported for the following molecule? COC1Oc2c(Cl)cc(Cl)cc2C(=O)/C1=C\Nc1cccc(S(N)(=O)=O)c1 (racemic)
Result :: -1.34

Query :: How about COC1Oc2ccccc2C(=O)/C1=C\Nc1ccccc1S(N)(=O)=O (racemic) ?
Result :: -1.04

Query :: Could you do the same for COC1Oc2ccccc2C(=O)/C1=C\Nc1ccc(S(N)(=O)=O)cc1 (racemic) , please?
Result :: -0.47

Query :: Another molecule: CC(C)OC1Oc2ccccc2C(=O)/C1=C\Nc1cccc(S(N)(=O)=O)c1 (racemic)
Result :: -1.85

Query :: COC1Oc2ccc(Cl)cc2C(=O)/C1=C\Nc1ccccc1S(N)(=O)=O (racemic) , same question.
Result :: -1.19

Query :: Follow-up item: COC1Oc2ccc(Cl)cc2C(=O)/C1=C\Nc1ccc(S(N)(=O)=O)cc1 (racemic)
Result :: -1.10

Query :: Ok, now CC(C)OC1Oc2ccccc2C(=O)/C1=C\Nc1ccc(S(N)(=O)=O)cc1 (racemic)
Result :: -1.28

Query :: Try the molecule COC1Oc2c(Cl)cc(Cl)cc2C(=O)/C1=C\Nc1ccc(S(N)(=O)=O)cc1 (racemic)
Result :: -0.86

* * *

Target: 5'-nucleotidase (Homo sapiens)
Sequence (P21589 whole entry): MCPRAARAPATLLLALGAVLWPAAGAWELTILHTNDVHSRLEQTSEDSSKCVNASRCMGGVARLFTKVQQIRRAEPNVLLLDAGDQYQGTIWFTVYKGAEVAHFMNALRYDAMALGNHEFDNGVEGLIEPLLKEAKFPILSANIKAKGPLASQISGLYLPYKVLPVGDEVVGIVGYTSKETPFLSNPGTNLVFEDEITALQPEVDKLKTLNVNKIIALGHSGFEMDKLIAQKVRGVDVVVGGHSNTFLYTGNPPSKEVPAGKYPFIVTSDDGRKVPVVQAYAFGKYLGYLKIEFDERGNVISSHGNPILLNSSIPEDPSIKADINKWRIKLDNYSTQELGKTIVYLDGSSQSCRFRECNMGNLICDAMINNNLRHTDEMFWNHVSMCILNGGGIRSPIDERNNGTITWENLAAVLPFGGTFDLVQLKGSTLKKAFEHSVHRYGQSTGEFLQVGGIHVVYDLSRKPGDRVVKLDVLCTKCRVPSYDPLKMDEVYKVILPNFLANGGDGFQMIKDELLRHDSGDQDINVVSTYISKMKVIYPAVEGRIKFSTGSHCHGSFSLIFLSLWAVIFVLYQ
Assay: Inhibition of human Ecto-5'-nucleotidase transfected in COS7 cells preincubated for 10 mins followed by AMP addition measured after 10 mins
Give measured pKi for each item. Keep answers brief.
Units for pKi: none; it is -log10 of a concentration expressed in mol/L.

Query :: For the molecule shown here, CCCCOC1Oc2ccccc2C(=O)/C1=C\Nc1ccc(S(N)(=O)=O)cc1 (racemic) , give the reported pKi.
Result :: 7.20

Query :: Same thing, different molecule: COC1Oc2ccccc2C(=O)/C1=C\Nc1cccc(S(N)(=O)=O)c1 (racemic)
Result :: 7.74

Query :: One more molecule: CCCCOC1Oc2ccccc2C(=O)/C1=C\Nc1cccc(S(N)(=O)=O)c1 (racemic)
Result :: 7.74

Query :: Query COC1Oc2c(Cl)cc(Cl)cc2C(=O)/C1=C\Nc1ccccc1S(N)(=O)=O (racemic) next
Result :: 7.38

Query :: Note, next up: COC1Oc2ccc(Cl)cc2C(=O)/C1=C\Nc1cccc(S(N)(=O)=O)c1 (racemic)
Result :: 7.57
